Molecular target: T1, Monomeric human CD48-mmH (human)
T1 chain: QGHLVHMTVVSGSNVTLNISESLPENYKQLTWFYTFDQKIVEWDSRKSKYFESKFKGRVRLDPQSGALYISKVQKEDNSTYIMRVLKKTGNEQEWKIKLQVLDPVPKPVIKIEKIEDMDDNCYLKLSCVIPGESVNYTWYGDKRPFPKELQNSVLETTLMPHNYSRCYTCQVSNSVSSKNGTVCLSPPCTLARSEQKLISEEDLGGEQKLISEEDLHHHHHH
Experiment: SPR (Biacore), antibody captured by anti-Fc, CD48 in solution, 37 C
QUANTITY: T½ (min)
Please respond with the number in min and leave the unit unwritten.

// solved cases for T½ follow
[[record]]
binder = "H4H1707N (antibody, V domains shown, Human IgG4 Fc (H4H)) VH: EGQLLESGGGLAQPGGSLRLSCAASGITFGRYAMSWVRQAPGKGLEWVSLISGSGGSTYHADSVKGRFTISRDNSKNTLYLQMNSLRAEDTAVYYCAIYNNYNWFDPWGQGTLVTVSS VL: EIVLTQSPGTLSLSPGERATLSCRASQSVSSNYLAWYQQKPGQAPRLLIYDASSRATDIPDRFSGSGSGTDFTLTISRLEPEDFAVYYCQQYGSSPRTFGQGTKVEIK"
quantity = "T½"
quantitative_result = 4

[[record]]
binder = "H4H1770P (antibody, human IgG4, V domains shown, Human IgG4 Fc (H4H)) VH: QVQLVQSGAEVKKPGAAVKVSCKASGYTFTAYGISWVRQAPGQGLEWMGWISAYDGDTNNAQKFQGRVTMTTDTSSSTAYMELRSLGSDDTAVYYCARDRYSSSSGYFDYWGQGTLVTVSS VL: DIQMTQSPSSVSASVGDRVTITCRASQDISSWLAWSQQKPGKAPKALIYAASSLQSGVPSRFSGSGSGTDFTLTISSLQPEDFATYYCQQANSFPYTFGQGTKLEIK"
quantity = "T½"
quantitative_result = 22


We next turn to a different binder, shown below.
# T½ lookup, item H4H1771P (antibody, human IgG4, V domains shown, Human IgG4 Fc (H4H)) VH: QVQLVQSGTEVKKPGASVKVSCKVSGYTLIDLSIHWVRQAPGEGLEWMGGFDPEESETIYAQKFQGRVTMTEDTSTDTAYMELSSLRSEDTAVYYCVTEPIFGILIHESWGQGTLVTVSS VL: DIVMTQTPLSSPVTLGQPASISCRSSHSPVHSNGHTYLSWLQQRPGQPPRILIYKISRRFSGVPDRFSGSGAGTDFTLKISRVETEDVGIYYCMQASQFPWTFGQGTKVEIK
21
